Data origin, for the record: patent US9278942B2

The molecules listed here are annotated with their Inhibition of [3H]-R1881 binding at 1.34 nM ± S.D..
Biological target: human AR (Homo sapiens, UniProt P10275)
Construct: expressed in transfected cells; host or cells: COS-1
Sequence (P10275 whole entry): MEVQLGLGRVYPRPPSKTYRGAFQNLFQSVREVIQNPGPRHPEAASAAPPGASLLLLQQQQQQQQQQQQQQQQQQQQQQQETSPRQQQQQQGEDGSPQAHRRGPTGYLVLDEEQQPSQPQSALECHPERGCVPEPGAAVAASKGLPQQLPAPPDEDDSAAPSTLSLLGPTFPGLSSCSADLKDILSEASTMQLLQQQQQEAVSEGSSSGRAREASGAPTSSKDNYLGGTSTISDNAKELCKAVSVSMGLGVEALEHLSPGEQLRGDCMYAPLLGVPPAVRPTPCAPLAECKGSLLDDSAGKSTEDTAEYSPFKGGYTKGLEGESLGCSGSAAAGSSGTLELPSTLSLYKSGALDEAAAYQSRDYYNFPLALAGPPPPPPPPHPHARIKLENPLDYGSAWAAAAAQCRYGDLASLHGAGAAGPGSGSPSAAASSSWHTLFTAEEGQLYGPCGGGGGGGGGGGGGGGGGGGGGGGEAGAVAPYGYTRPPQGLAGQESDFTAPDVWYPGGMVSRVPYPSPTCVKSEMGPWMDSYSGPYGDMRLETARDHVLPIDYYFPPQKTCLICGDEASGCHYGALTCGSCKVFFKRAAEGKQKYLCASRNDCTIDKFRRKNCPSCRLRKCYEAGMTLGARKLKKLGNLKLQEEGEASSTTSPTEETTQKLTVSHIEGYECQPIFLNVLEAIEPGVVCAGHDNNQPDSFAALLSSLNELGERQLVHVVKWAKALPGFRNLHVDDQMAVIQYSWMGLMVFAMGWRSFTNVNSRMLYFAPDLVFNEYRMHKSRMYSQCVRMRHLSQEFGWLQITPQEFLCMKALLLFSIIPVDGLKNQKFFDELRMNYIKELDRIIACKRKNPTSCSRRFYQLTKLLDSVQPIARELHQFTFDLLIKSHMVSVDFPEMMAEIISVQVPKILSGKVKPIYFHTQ
Test: Competitive AR binding assay against [3H]-R1881 in transiently transfected COS-1 cells
Conditions: Table 1; compound 13.4 μM; [3H]-R1881 1.34 nM; complete inhibition equals 100%
readout: Inhibition of [3H]-R1881 binding at 1.34 nM ± S.D. (%)

[
  {
    "molecule": "Clc1ccccc1C1=NOC2CCCCC12 (single isomer, unassigned) [Example 30b]",
    "recordedValue": 66.3
  },
  {
    "molecule": "c1ccc2c(C3=NOC4CCCCC34)cccc2c1 (single isomer, unassigned) [Example 33b]",
    "recordedValue": 56.9
  },
  {
    "molecule": "COc1cccc(C2=NOC(Cc3ccccc3)(c3ccccc3)C2)c1 (single isomer, unassigned) [Example 13a]",
    "recordedValue": 31.1
  },
  {
    "molecule": "COc1cccc(C2=NOC(Cc3ccccc3)(c3ccccc3)C2)c1 (single isomer, unassigned) [Example 13b]",
    "recordedValue": 1.6
  },
  {
    "molecule": "O=[N+]([O-])c1ccc(C2=NOC3CCCCC23)cc1 (single isomer, unassigned) [Example 34a]",
    "recordedValue": 34.7
  },
  {
    "molecule": "Clc1cccc(C2=NOC3CCCCC23)c1 (single isomer, unassigned) [Example 31a]",
    "recordedValue": 20.3
  },
  {
    "molecule": "COc1ccc(C2=NOC(Cc3ccccc3)(c3ccccc3)C2)cc1 (single isomer, unassigned) [Example 14a]",
    "recordedValue": 29.6
  }
]
